Provide the recorded log10(IC50) for the entries that follow.
Biological target: recombinant human VAP-1 (Homo sapiens)
Construct: purchased R&D systems
Sequence (Q16853 whole entry): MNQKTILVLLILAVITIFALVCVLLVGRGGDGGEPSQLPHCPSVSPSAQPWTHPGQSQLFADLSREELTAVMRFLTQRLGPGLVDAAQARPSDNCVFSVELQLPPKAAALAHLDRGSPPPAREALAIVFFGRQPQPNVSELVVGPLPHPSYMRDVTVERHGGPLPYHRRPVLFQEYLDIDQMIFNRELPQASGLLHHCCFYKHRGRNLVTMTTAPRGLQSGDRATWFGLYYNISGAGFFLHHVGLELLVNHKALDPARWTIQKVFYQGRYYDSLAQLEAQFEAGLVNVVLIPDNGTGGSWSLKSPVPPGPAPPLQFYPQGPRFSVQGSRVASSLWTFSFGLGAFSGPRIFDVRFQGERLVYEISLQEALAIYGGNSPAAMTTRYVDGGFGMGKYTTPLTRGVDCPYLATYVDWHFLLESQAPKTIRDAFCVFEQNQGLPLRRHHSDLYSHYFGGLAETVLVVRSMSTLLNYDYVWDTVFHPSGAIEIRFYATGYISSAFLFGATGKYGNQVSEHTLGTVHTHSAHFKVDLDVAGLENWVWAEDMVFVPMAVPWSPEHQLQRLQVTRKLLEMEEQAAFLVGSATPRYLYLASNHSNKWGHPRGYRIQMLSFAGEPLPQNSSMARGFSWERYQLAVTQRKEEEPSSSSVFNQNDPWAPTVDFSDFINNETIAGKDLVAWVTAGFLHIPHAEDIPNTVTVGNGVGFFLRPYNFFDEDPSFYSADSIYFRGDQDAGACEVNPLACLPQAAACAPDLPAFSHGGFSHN
Assay: Activity evaluation on recombinant human VAP-1 (Amplex Red/HRP-coupled hydrogen peroxide assay, benzylamine substrate)
Format: biochemical
Settings: recombinant human VAP-1; 30 min preincubation at 37° C.; 1 mM benzylamine; read-out: Inhibitory Activity (IC50, nM) human VAP-1
Procedure: The compounds according to the present technology were evaluated in terms of activity on recombinant human VAP-1 (R&D systems) by measuring the level of hydrogen peroxide in horseradish peroxidase (HRP)-coupled reaction using Amplex Red Hydrogen Peroxide Assay Kit (Molecular Probes, Invitrogen, USA). […] The inhibitory effect of the compounds was measured as a decrease (%) in the signal rate as compared to the control group without any inhibitor (only diluted DMSO). […]
Structures can show the parent of a compound that is named as a salt.
# log10 transformed; quantity=IC50; unit=nM

Consider the following illustrative entries.
COMPOUND: Cc1cc(-c2ccc(N3CCNCC3)cc2)sc1Cn1cnn(CC(CN)=C(F)F)c1=O [Example 155, Ditrifluoroacetate]
READOUT VALUE: 1.75

COMPOUND: NCC(Cn1ncn(Cc2ccc(-c3ccc4c(c3)C(=O)NCC4)s2)c1=O)=C(F)F [Example 132, Trifluoroacetate]
READOUT VALUE: -0.70

COMPOUND: CN(C)c1ccc(-c2cc(-n3cnn(CC(CN)=C(F)F)c3=O)ccn2)cn1 [Example 63, Trifluoroacetate]
READOUT VALUE: -0.15

Hi, could you look up log10(IC50) for each item in my list?
1. CN(C)c1ccc(-c2ccc(-n3cnn(CC(CN)=C(F)F)c3=O)c(F)c2)cn1 [Example 34, Trifluoroacetate]
2. NCC(Cn1ncn(-c2ncc(-c3ccc(C(F)(F)F)nc3)cc2F)c1=O)=C(F)F [Example 84, Trifluoroacetate]
3. CN1C(=O)CCc2cc(-c3cccc(-n4cnn(CC(CN)=C(F)F)c4=O)n3)ccc21 [Example 52, Trifluoroacetate]
4. Cc1cc(-c2ccc(Cn3cnn(CC(CN)=C(F)F)c3=O)s2)cc2c1NC(=O)CC2 [Example 134, Trifluoroacetate]

[-0.52, -0.70, -0.05, -0.52]
